Reported inhibition (INH) values for a set of compounds
- measurement target: Sodium-dependent dopamine transporter (Homo sapiens)
- Sequence (Q01959 whole entry): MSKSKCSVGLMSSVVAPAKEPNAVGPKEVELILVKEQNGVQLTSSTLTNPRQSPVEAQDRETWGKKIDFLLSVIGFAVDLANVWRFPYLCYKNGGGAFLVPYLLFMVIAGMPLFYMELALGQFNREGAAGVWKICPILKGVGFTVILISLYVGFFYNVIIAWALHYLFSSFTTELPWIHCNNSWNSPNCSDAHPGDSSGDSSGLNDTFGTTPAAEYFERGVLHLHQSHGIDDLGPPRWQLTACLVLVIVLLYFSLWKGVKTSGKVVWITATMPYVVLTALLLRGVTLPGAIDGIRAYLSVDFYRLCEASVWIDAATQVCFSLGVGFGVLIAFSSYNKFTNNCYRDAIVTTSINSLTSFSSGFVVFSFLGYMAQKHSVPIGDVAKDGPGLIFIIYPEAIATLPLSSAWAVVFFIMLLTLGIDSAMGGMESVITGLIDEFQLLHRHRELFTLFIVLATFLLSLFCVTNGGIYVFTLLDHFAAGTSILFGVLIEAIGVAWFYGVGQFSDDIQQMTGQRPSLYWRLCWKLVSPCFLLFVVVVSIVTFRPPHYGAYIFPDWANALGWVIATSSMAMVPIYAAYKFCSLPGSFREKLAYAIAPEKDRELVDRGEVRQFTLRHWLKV
- test description: Displacement of [3H]WIN35428 from human DAT expressed in HEK cells by radioligand binding assay relative to control
- Type: cell-based
measured endpoint: inhibition (INH) (%)

- OC1(c2ccc(Cl)c(C(F)(F)F)c2)CCN(CCCC(c2ccc(F)cc2)c2ccc(F)cc2)CC1 [PENFLURIDOL]: 89.1
- OC1(c2ccc(Cl)c(C(F)(F)F)c2)CCN(CCCN(c2ccc(F)cc2)c2ccc(F)cc2)CC1: 83.4
- OC1(c2ccc(Cl)c(C(F)(F)F)c2)CCN(CCCC(c2ccccc2)c2ccccc2)CC1: 87.5
- OC1(c2ccc(Cl)c(C(F)(F)F)c2)CCN(CCCCC(c2ccc(F)cc2)c2ccc(F)cc2)CC1: 91.6
- COc1ccc(N(CCCCN2CCC(O)(c3ccc(Cl)c(C(F)(F)F)c3)CC2)c2ccc(OC)cc2)cc1: 91.3
- OC1(c2ccc(Cl)c(C(F)(F)F)c2)CCN(CCCCN(c2ccc(F)cc2)c2ccc(F)cc2)CC1: 86.6

----------
Reported pKi values for a set of molecules
- measurement target: UniProt P21728
- Sequence (P21728 whole entry): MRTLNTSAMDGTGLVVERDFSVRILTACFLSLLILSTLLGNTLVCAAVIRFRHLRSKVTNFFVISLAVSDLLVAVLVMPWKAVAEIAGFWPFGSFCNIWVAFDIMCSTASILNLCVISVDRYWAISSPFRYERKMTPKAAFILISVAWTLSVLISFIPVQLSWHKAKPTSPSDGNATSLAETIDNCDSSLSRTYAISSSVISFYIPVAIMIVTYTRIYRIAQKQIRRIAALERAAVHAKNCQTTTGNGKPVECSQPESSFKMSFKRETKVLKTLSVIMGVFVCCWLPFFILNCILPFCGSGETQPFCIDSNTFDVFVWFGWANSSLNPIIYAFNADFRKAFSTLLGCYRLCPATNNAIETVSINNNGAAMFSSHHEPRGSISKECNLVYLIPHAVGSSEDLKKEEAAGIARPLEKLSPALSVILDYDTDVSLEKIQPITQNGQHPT
- test description: Displacement of [3H]SCH23390 from human dopamine D1 receptor expressed in HEK293T cells by radioligand binding assay
pKi: −log10 of the molar value.
measured endpoint: pKi

• OC1(c2ccc(Cl)c(C(F)(F)F)c2)CCN(CCCCC(c2ccc(F)cc2)c2ccc(F)cc2)CC1 = 6.10
• OC1(c2ccc(Cl)c(C(F)(F)F)c2)CCN(CCCN(c2ccc(F)cc2)c2ccc(F)cc2)CC1 = 6.52
• OC1(c2ccc(Cl)c(C(F)(F)F)c2)CCN(CCCC(c2ccc(F)cc2)c2ccc(F)cc2)CC1 = 6.83
• COc1ccc(N(CCCCN2CCC(O)(c3ccc(Cl)c(C(F)(F)F)c3)CC2)c2ccc(OC)cc2)cc1 = 5.00
• OC1(c2ccc(Cl)c(C(F)(F)F)c2)CCN(CCCCN(c2ccc(F)cc2)c2ccc(F)cc2)CC1 = 5.00
• OC1(c2ccc(Cl)c(C(F)(F)F)c2)CCN(CCCC(c2ccccc2)c2ccccc2)CC1 = 6.87

----------
- measurement target: 5-hydroxytryptamine receptor 7 (Homo sapiens)
pKi: −log10 of the molar value.
measured endpoint: pKi

• OC1(c2ccc(Cl)c(C(F)(F)F)c2)CCN(CCCCN(c2ccc(F)cc2)c2ccc(F)cc2)CC1 = 6.09
• COc1ccc(N(CCCCN2CCC(O)(c3ccc(Cl)c(C(F)(F)F)c3)CC2)c2ccc(OC)cc2)cc1 = 6.02
• OC1(c2ccc(Cl)c(C(F)(F)F)c2)CCN(CCCCCc2ccc(F)cc2)CC1 = 5.95
• OC1(c2ccc(Cl)c(C(F)(F)F)c2)CCN(CCCC(c2ccc(F)cc2)c2ccc(F)cc2)CC1 [PENFLURIDOL] = 6.55
• OC1(c2ccc(Cl)c(C(F)(F)F)c2)CCN(CCCN(c2ccc(F)cc2)c2ccc(F)cc2)CC1 = 5.80
• OC1(c2ccc(Cl)c(C(F)(F)F)c2)CCN(CCCC=C(c2ccc(F)cc2)c2ccc(F)cc2)CC1 = 5.00
• OC1(c2ccc(Cl)c(C(F)(F)F)c2)CCN(CCCC(c2ccccc2)c2ccccc2)CC1 = 6.49
• OC1(c2ccc(Cl)c(C(F)(F)F)c2)CCN(CCCCC(c2ccc(F)cc2)c2ccc(F)cc2)CC1 = 6.01

----------
- measurement target: UniProt:P08908
- Sequence (P08908 whole entry): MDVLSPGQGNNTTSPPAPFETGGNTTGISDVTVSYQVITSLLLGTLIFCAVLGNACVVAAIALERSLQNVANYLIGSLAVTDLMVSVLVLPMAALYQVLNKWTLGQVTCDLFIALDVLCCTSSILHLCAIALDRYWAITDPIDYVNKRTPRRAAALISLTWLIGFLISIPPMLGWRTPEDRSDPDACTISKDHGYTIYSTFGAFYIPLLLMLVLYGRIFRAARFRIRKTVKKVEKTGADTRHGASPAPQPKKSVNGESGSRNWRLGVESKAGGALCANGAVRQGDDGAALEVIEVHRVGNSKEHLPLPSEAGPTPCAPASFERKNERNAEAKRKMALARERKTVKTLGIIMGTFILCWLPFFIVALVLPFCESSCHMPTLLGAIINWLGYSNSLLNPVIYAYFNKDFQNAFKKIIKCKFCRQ
pKi: −log10 of the molar value.
measured endpoint: pKi

• OC1(c2ccc(Cl)c(C(F)(F)F)c2)CCN(CCCCCc2ccc(F)cc2)CC1 = 6.05
• OC1(c2ccc(Cl)c(C(F)(F)F)c2)CCN(CCCCN(c2ccc(F)cc2)c2ccc(F)cc2)CC1 = 5.96
• OC1(c2ccc(Cl)c(C(F)(F)F)c2)CCN(CCCC(c2ccc(F)cc2)c2ccc(F)cc2)CC1 = 6.45
• OC1(c2ccc(Cl)c(C(F)(F)F)c2)CCN(CCCN(c2ccc(F)cc2)c2ccc(F)cc2)CC1 = 5.90

----------
- measurement target: 5-hydroxytryptamine receptor 7 (Homo sapiens, UniProt P34969)
- Sequence (P34969 whole entry): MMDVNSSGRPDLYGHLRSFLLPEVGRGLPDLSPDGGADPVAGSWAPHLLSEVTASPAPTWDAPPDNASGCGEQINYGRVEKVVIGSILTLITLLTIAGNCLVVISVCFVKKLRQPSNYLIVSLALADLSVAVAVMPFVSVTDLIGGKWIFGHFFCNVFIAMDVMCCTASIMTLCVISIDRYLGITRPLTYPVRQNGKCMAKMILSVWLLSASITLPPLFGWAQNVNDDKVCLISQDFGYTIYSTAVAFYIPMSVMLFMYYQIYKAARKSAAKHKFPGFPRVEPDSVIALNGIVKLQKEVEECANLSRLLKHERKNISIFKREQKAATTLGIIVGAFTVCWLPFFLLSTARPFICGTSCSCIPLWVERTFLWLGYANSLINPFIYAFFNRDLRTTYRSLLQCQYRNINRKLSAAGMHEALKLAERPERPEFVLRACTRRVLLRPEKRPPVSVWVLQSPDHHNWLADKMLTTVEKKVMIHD
- test description: Displacement of [3H]LSD from human 5-HT7A receptor expressed in HEK cells by radioligand binding assay relative to control
- Type: cell-based
Where inhibition (INH) equals or exceeds 80%, the correct label is rule met; where it does not, the label is rule not met.

• OC1(c2ccc(Cl)c(C(F)(F)F)c2)CCN(CCCC(c2ccc(F)cc2)c2ccc(F)cc2)CC1 = rule met
• OC1(c2ccc(Cl)c(C(F)(F)F)c2)CCN(CCCCCc2ccc(F)cc2)CC1 = rule not met
• OC1(c2ccc(Cl)c(C(F)(F)F)c2)CCN(CCCN(c2ccc(F)cc2)c2ccc(F)cc2)CC1 = rule met
• OC1(c2ccc(Cl)c(C(F)(F)F)c2)CCN(CCCCN(c2ccc(F)cc2)c2ccc(F)cc2)CC1 = rule not met
• OC1(c2ccc(Cl)c(C(F)(F)F)c2)CCN(CCCCC(c2ccc(F)cc2)c2ccc(F)cc2)CC1 = rule met
• COc1ccc(N(CCCCN2CCC(O)(c3ccc(Cl)c(C(F)(F)F)c3)CC2)c2ccc(OC)cc2)cc1 = rule not met

----------
- measurement target: Mu-type opioid receptor (Homo sapiens)
- Sequence (P35372 whole entry): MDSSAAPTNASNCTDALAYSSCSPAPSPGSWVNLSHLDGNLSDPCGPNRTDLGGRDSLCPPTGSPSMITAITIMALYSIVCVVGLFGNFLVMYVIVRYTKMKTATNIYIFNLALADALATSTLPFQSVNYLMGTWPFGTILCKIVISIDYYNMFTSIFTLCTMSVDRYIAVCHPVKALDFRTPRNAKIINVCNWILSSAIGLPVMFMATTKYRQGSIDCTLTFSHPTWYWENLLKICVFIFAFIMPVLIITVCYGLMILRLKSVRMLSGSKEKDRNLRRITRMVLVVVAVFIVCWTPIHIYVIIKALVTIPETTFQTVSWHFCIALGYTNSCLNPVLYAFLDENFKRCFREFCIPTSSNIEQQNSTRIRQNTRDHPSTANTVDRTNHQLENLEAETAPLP
pKi: −log10 of the molar value.
Reported pKi values for a set of compounds
measured endpoint: pKi

• OC1(c2ccc(Cl)c(C(F)(F)F)c2)CCN(CCCCC(c2ccc(F)cc2)c2ccc(F)cc2)CC1 = 6.45
• OC1(c2ccc(Cl)c(C(F)(F)F)c2)CCN(CCCC(c2ccccc2)c2ccccc2)CC1 = 7.15
• COc1ccc(N(CCCCN2CCC(O)(c3ccc(Cl)c(C(F)(F)F)c3)CC2)c2ccc(OC)cc2)cc1 = 5.08
• OC1(c2ccc(Cl)c(C(F)(F)F)c2)CCN(CCCCN(c2ccc(F)cc2)c2ccc(F)cc2)CC1 = 5.00
• OC1(c2ccc(Cl)c(C(F)(F)F)c2)CCN(CCCC=C(c2ccc(F)cc2)c2ccc(F)cc2)CC1 = 6.48
• OC1(c2ccc(Cl)c(C(F)(F)F)c2)CCN(CCCN(c2ccc(F)cc2)c2ccc(F)cc2)CC1 = 6.04
• OC1(c2ccc(Cl)c(C(F)(F)F)c2)CCN(CCCCCc2ccc(F)cc2)CC1 = 6.27
• OC1(c2ccc(Cl)c(C(F)(F)F)c2)CCN(CCCC(c2ccc(F)cc2)c2ccc(F)cc2)CC1 = 6.06

----------
- measurement target: D(2) dopamine receptor (Homo sapiens, UniProt P14416)
- Sequence (P14416 whole entry): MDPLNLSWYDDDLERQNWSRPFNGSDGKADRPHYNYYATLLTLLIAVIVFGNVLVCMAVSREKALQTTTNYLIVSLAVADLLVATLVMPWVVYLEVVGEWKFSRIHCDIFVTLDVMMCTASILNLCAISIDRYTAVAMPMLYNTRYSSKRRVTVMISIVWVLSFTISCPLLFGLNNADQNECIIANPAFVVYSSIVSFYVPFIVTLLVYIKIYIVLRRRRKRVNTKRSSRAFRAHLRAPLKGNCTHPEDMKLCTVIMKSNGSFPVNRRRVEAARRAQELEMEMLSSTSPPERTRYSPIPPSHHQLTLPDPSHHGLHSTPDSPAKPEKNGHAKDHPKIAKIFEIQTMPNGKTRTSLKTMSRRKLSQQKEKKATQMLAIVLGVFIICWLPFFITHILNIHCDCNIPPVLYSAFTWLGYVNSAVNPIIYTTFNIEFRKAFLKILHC
- test description: Displacement of [3H]N-methylspiperone from human dopamine D2 receptor expressed in stable fibroblast cells by radioligand binding assay relative to control
- Assay type: cell-based
- Design: concentration or dose not given beside the values
- experimental parameters: concentration not given here
measured endpoint: inhibition (%)

• OC1(c2ccc(Cl)c(C(F)(F)F)c2)CCN(CCCC=C(c2ccc(F)cc2)c2ccc(F)cc2)CC1 = 87.3
• OC1(c2ccc(Cl)c(C(F)(F)F)c2)CCN(CCCCN(c2ccc(F)cc2)c2ccc(F)cc2)CC1 = 65.8
• OC1(c2ccc(Cl)c(C(F)(F)F)c2)CCN(CCCN(c2ccc(F)cc2)c2ccc(F)cc2)CC1 = 66.4
• OC1(c2ccc(Cl)c(C(F)(F)F)c2)CCN(CCCCCc2ccc(F)cc2)CC1 = 81.8
• COc1ccc(N(CCCCN2CCC(O)(c3ccc(Cl)c(C(F)(F)F)c3)CC2)c2ccc(OC)cc2)cc1 = 60
• OC1(c2ccc(Cl)c(C(F)(F)F)c2)CCN(CCCCC(c2ccc(F)cc2)c2ccc(F)cc2)CC1 = 99.2
• OC1(c2ccc(Cl)c(C(F)(F)F)c2)CCN(CCCC(c2ccccc2)c2ccccc2)CC1 = 100
• OC1(c2ccc(Cl)c(C(F)(F)F)c2)CCN(CCCC(c2ccc(F)cc2)c2ccc(F)cc2)CC1 = 71.5

----------
- measurement target: 5-hydroxytryptamine receptor 2B (Homo sapiens, UniProt P41595)
- Sequence (P41595 whole entry): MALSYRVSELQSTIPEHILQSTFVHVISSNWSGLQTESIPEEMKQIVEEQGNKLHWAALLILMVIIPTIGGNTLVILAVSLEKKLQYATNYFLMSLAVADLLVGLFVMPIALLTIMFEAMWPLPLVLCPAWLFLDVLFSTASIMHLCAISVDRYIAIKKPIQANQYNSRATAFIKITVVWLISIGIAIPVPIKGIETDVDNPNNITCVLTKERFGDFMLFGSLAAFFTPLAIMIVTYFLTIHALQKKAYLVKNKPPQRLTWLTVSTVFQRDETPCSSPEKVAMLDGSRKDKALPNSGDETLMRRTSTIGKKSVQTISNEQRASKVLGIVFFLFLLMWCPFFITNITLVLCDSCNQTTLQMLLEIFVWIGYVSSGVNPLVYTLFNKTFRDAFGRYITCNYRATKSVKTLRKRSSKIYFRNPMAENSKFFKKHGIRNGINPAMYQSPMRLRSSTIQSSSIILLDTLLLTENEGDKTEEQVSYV
- test description: Displacement of [3H]LSD from human 5-HT2B receptor expressed in HEK cells by radioligand binding assay
- Format: cell-based
- experimental parameters: read-out: Ki
measured endpoint: Ki (nM)

* OC1(c2ccc(Cl)c(C(F)(F)F)c2)CCN(CCCN(c2ccc(F)cc2)c2ccc(F)cc2)CC1 | 177
* OC1(c2ccc(Cl)c(C(F)(F)F)c2)CCN(CCCCC(c2ccc(F)cc2)c2ccc(F)cc2)CC1 | 423
* OC1(c2ccc(Cl)c(C(F)(F)F)c2)CCN(CCCC(c2ccc(F)cc2)c2ccc(F)cc2)CC1 | 184
* OC1(c2ccc(Cl)c(C(F)(F)F)c2)CCN(CCCC(c2ccccc2)c2ccccc2)CC1 | 374

----------
- measurement target: UniProt:P28223
- Sequence (P28223 whole entry): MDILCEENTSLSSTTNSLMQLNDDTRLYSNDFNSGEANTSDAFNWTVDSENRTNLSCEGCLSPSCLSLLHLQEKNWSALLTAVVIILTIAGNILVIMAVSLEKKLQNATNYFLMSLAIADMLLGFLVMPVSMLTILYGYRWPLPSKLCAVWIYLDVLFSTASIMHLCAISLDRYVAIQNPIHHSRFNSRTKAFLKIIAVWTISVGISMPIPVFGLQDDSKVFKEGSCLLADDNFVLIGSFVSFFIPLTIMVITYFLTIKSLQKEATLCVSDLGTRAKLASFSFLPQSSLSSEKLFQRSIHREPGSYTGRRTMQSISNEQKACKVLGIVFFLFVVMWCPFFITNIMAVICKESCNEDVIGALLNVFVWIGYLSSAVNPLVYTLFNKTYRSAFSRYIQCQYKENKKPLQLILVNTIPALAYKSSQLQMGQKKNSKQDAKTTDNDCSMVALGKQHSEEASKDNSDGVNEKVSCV
- test description: Displacement of [3H]Ketanserin from 5-HT2A receptor (unknown origin) by radioligand binding assay relative to control
- Design: concentration or dose not given beside the values
- experimental parameters: concentration not given here
measured endpoint: inhibition

* OC1(c2ccc(Cl)c(C(F)(F)F)c2)CCN(CCCN(c2ccc(F)cc2)c2ccc(F)cc2)CC1 | 94.6%
* OC1(c2ccc(Cl)c(C(F)(F)F)c2)CCN(CCCC=C(c2ccc(F)cc2)c2ccc(F)cc2)CC1 | 91.5%
* OC1(c2ccc(Cl)c(C(F)(F)F)c2)CCN(CCCCC(c2ccc(F)cc2)c2ccc(F)cc2)CC1 | 96.3%
* OC1(c2ccc(Cl)c(C(F)(F)F)c2)CCN(CCCCN(c2ccc(F)cc2)c2ccc(F)cc2)CC1 | 92.6%
* OC1(c2ccc(Cl)c(C(F)(F)F)c2)CCN(CCCC(c2ccc(F)cc2)c2ccc(F)cc2)CC1 [PENFLURIDOL] | 95.2%
* OC1(c2ccc(Cl)c(C(F)(F)F)c2)CCN(CCCCCc2ccc(F)cc2)CC1 | 68.5%
* COc1ccc(N(CCCCN2CCC(O)(c3ccc(Cl)c(C(F)(F)F)c3)CC2)c2ccc(OC)cc2)cc1 | 94.1%
* OC1(c2ccc(Cl)c(C(F)(F)F)c2)CCN(CCCC(c2ccccc2)c2ccccc2)CC1 | 94.3%
